B1: library; a variant is named by its letters at N, in order (parent)
chain: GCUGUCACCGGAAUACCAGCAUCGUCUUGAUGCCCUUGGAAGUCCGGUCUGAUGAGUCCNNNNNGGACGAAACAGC

variants of: B1; test: FACS-Seq fitted mean relative fluorescence mCherry/BFP with ligand (log10 relative fluorescence); ligand concentration (+) FACS-Seq: 1 mM; higher = higher reporter protein expression; details: HEK293T, ligand present: yes
experimental endpoint: FACS-Seq fitted mean (log10)
Numbers only.

>  <mutation name>
ACGAC

>  <FACS-Seq fitted mean (log10)>
1.19

$$$$

Below are 6 variants. Give each one its FACS-Seq fitted mean (log10).
1. UUCCC
2. AUGUG
3. UGAUA
4. UAAUC
5. UGGUU
6. AAUGA

Reply:
[0.991, 0.295, 0.789, 0.908, 1.01, 0.691]
